# Average 1 per entry
Target: PmSiaT (Proteus mirabilis)
Construct: made in house
Sequence (B4EZY7 whole entry): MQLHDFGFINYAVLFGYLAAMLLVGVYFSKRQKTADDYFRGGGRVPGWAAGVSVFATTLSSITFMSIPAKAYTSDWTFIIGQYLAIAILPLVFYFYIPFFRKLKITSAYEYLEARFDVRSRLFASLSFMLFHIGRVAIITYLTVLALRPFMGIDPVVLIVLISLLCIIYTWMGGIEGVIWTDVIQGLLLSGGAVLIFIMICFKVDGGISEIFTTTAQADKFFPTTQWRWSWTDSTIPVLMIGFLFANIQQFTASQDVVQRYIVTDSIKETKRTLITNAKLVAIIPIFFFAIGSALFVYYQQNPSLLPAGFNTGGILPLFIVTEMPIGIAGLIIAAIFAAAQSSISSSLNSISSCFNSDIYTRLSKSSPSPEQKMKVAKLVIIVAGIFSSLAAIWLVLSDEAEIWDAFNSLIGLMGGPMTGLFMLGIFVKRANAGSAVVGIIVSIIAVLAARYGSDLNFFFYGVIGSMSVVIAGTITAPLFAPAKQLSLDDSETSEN
Assay: nanoDSF thermal shift assay, PmSiaT
Type: binding
Details: PmSiaT Tm, average of experiment 1
Reply with just the number (in °C).

Examples with answers:
Input line: What value of Average 1 has been recorded for this entry: CC(=O)NC1C(OCc2ccc(Br)cc2)CC(O)(C(=O)O)OC1C(O)C(O)CO (centres unmarked)
Output line: 56.7

Input line: What value of Average 1 has been recorded for this entry: [N-]=[N+]=NCC(=O)N[C@H]1[C@H]([C@H](O)[C@H](O)CO)O[C@@](O)(C(=O)O)C[C@@H]1O [Compound 6h, reference compound]
Output line: 49.2

Input line: What value of Average 1 has been recorded for this entry: CC(=O)NC1C(O)CC(O)(C(=O)O)OC1C(O)C(O)CCl (centres unmarked)
Output line: 47.7

Input line: What value of Average 1 has been recorded for this entry: O=C(CF)NC1C(O)CC(O)(C(=O)O)OC1C(O)C(O)CO (centres unmarked)
Output line: 47.4

Now look at this one.
Input line: What value of Average 1 has been recorded for this entry: CC(=O)NC1C(O)CC(O)(C(=O)O)OC1C(O)C(O)CBr (centres unmarked)
Output line: 47.3
